Reported log2 ratio of Biotin-Ahx-Ub-VS probe labelling values for the following compounds.
# system.under.test: FAM105A (UniProt Q9NUU6)
# Sequence (whole entry): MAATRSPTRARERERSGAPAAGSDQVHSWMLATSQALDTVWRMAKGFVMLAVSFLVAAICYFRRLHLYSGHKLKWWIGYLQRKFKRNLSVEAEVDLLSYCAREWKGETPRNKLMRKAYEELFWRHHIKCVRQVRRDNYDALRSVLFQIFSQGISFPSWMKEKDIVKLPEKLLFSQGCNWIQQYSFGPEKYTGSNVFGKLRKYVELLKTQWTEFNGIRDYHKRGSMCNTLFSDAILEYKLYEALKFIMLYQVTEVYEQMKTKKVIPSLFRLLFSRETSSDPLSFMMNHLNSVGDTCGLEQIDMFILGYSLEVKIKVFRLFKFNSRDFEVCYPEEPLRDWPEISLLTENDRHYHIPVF
# procedure.summary: log2 ratio of Biotin-Ahx-Ub-VS probe labelling (fragment/DMSO); higher = less target engagement (more negative = stronger competition), active = hit call of the paper (q ≤ 0.05, log2 ratio ≤ -1)
# measurement.parameters: compound concentration: 200 uM; treatment time: 3 h

Answered cases to consult:
[[record]]
compound = "O=C(CCl)Nc1cc(Cl)ccc1C(=O)O"
result = "-0.0511 (inactive)"

[[record]]
compound = "Cc1n[nH]c2c1CN(C(=O)CCl)CC2"
result = "0.0256 (inactive)"

[[record]]
compound = "O=C(CCl)NCC1(c2ccccc2)CC1"
result = "-0.0439 (inactive)"

[[record]]
compound = "CS(=O)(=O)c1ccc(NC(=O)CCl)cc1"
result = "-0.0733 (inactive)"

[[record]]
compound = "NC(=O)C1CCCCN1C(=O)CCl (stereo not given)"
result = "-0.18 (inactive)"


Give its log2 ratio of Biotin-Ahx-Ub-VS probe labelling value. Item: O=C(CCl)N1CCC(C(=O)N2CCCCCC2)CC1
-0.0217 (inactive)

Queued: CC(NC(=O)CCl)c1csc(-c2ccccc2)n1.Cl (stereo not given)
0.268 (inactive)

Queued: Cl.O=C(CCl)N[C@H]1C[C@@H](n2cccn2)C1
-0.138 (inactive)

Queued: Cc1c(NC(=O)CCl)c(=O)n(-c2ccccc2)n1C
-0.533 (inactive)

Queued: Cc1cnc2[nH]cc(CCNC(=O)CCl)c2c1
-0.55 (inactive)

###

# system.under.test: USP48 (UniProt Q86UV5)
# Sequence (whole entry): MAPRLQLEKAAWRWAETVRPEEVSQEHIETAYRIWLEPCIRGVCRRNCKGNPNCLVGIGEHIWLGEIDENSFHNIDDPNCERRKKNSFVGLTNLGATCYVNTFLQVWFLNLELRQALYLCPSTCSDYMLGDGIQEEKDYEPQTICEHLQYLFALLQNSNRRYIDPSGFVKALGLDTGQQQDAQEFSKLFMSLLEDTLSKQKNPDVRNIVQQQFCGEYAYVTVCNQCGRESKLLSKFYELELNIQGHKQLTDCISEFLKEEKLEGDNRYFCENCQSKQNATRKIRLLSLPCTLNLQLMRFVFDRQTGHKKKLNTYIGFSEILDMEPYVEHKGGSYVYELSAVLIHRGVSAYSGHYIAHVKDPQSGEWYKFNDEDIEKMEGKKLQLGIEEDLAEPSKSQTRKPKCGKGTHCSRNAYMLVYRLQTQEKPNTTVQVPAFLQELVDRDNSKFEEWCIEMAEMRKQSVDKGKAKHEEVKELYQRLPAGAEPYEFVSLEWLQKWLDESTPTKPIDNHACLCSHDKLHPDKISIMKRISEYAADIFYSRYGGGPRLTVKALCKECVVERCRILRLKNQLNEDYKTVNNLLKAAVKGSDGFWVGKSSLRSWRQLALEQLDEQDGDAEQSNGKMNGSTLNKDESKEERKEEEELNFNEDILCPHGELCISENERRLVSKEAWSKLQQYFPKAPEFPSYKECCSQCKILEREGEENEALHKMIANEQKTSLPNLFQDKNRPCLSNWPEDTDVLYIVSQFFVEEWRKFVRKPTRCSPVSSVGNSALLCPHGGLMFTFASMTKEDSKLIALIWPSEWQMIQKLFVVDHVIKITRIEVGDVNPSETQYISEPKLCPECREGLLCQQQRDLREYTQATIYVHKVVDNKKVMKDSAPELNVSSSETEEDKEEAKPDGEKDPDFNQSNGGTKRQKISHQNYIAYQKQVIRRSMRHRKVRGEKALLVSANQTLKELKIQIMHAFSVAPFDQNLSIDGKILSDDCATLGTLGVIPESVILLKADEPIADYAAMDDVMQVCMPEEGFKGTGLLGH
# procedure.summary: log2 ratio of Biotin-Ahx-Ub-VS probe labelling (fragment/DMSO); higher = less target engagement (more negative = stronger competition), active = hit call of the paper (q ≤ 0.05, log2 ratio ≤ -1)
# measurement.parameters: compound concentration: 200 uM; treatment time: 3 h
Please note: Fulfilled applies when log2 ratio of Biotin-Ahx-Ub-VS probe labelling is -0.4 or greater, and Not fulfilled applies otherwise.

[[record]]
compound = "Cc1cccc(C)c1NC(=O)CCl"
assigned_category = "Not fulfilled"


Could you verify whether the entry CNC(=O)Cn1cc(NC(=O)CCl)cn1 shows log2 ratio of Biotin-Ahx-Ub-VS probe labelling of no less than -0.4?
Fulfilled

Queued: NC(=O)C1CCCN(C(=O)CCl)C1 (stereo unspecified)
Fulfilled

Queued: CCN(C(=O)CCl)C1CCCCC1
Fulfilled

Queued: CC(=O)Nc1ccc(NC(=O)CCl)cc1
Fulfilled

Queued: CC1CCc2onc(CNC(=O)CCl)c2C1 (stereo unspecified)
Fulfilled
